Give measured inhibition at 100 µg/mL for each item. Keep answers brief.
- ASSAY TARGET: pancreatic lipase (Homo sapiens)
- Sequence (P16233 17-465): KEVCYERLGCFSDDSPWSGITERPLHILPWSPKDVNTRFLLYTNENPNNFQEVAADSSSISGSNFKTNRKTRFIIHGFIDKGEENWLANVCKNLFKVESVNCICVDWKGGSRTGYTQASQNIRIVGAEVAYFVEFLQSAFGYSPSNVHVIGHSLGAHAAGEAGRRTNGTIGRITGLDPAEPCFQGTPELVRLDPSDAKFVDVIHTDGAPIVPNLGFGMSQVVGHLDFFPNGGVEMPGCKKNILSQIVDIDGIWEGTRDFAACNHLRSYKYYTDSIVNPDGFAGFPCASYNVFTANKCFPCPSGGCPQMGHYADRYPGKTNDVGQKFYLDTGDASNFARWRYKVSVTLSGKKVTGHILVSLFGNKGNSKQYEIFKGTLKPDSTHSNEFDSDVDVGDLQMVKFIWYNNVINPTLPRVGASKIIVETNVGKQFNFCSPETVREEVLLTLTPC
- ASSAY TEXT: In vitro pancreatic lipase inhibition
- Assay type: biochemical
- EXPERIMENTAL SETUP: at 100 µg/mL
Respond with the bare value in %.

Noted inhibition at 100 µg/mL for O=C(O[C@@H]1[C@@H](OC(=O)c2cc(O)c(O)c(O)c2)[C@H](O)O[C@@H]2COC(=O)c3cc(O)c(O)c(O)c3-c3c(cc(O)c(O)c3O)C(=O)O[C@@H]12)c1cc(O)c(O)c(O)c1 , tested on pancreatic lipase (Homo sapiens): 19.5

Noted inhibition at 100 µg/mL for C[C@@H]1O[C@@H](OC[C@H]2O[C@@H](Oc3c(-c4ccc(O)cc4)oc4cc(O)cc(O)c4c3=O)[C@H](O)[C@@H](O)[C@@H]2O)[C@H](O)[C@H](O)[C@H]1O [Compound 2, kaempfeol 3-O-rutinoside] , tested on pancreatic lipase (Homo sapiens): 35.8

Noted inhibition at 100 µg/mL for C[C@@H]1O[C@@H](OC[C@H]2O[C@@H](Oc3c(-c4ccc(O)c(O)c4)oc4cc(O)cc(O)c4c3=O)[C@H](O)[C@@H](O)[C@@H]2O)[C@H](O)[C@H](O)[C@H]1O [Compound 3, quercetin 3-O-rutinoside] , tested on pancreatic lipase (Homo sapiens): 82.2

Noted inhibition at 100 µg/mL for O=C(O[C@H]1[C@H](O)[C@@H](CO)OC(O)[C@@H]1OC(=O)c1cc(O)c(O)c(O)c1)c1cc(O)c(O)c(O)c1 (stereo partly drawn) , tested on pancreatic lipase (Homo sapiens): 18.7

Noted inhibition at 100 µg/mL for O=C(OC[C@H]1O[C@@H](Oc2c(-c3cc(O)c(O)c(O)c3)oc3cc(O[C@@H]4O[C@H](CO)[C@@H](O)[C@H](O)[C@H]4O)cc(O)c3c2=O)[C@H](O)[C@@H](O)[C@@H]1O)c1cc(O)c(O)c(O)c1 , tested on pancreatic lipase (Homo sapiens): 87

Noted inhibition at 100 µg/mL for CCCCCCCCCCC[C@@H](C[C@@H]1OC(=O)[C@H]1CCCCCC)OC(=O)[C@H](CC(C)C)NC=O [Orlistat, reference compound] , tested on pancreatic lipase (Homo sapiens): 57

---

- ASSAY TEXT: ORAC antioxidant assay
Give measured ORAC IC50 for each item. Keep answers brief.
Respond with the bare value in µg/mL.

Entry under test: Cc1c(C)c2c(c(C)c1O)CCC(C)(C(=O)O)O2 (stereo not drawn) [Trolox, reference compound] . Its ORAC IC50 was 28.0

Entry under test: O=C(O[C@@H]1[C@@H](OC(=O)c2cc(O)c(O)c(O)c2)[C@H](O)O[C@@H]2COC(=O)c3cc(O)c(O)c(O)c3-c3c(cc(O)c(O)c3O)C(=O)O[C@@H]12)c1cc(O)c(O)c(O)c1 . Its ORAC IC50 was 4.14

Entry under test: O=C(OC[C@H]1O[C@@H](Oc2c(-c3cc(O)c(O)c(O)c3)oc3cc(O[C@@H]4O[C@H](CO)[C@@H](O)[C@H](O)[C@H]4O)cc(O)c3c2=O)[C@H](O)[C@@H](O)[C@@H]1O)c1cc(O)c(O)c(O)c1 . Its ORAC IC50 was 2.01

Entry under test: O=C(O[C@H]1[C@H](O)[C@@H](CO)OC(O)[C@@H]1OC(=O)c1cc(O)c(O)c(O)c1)c1cc(O)c(O)c(O)c1 (stereo partly drawn) . Its ORAC IC50 was 4.43

Entry under test: C[C@@H]1O[C@@H](OC[C@H]2O[C@@H](Oc3c(-c4ccc(O)c(O)c4)oc4cc(O)cc(O)c4c3=O)[C@H](O)[C@@H](O)[C@@H]2O)[C@H](O)[C@H](O)[C@H]1O [Compound 3, quercetin 3-O-rutinoside] . Its ORAC IC50 was 8.02
